# target-or-test-system: GSK-3β (Homo sapiens, UniProt P49841)
# Sequence (P49841 whole entry): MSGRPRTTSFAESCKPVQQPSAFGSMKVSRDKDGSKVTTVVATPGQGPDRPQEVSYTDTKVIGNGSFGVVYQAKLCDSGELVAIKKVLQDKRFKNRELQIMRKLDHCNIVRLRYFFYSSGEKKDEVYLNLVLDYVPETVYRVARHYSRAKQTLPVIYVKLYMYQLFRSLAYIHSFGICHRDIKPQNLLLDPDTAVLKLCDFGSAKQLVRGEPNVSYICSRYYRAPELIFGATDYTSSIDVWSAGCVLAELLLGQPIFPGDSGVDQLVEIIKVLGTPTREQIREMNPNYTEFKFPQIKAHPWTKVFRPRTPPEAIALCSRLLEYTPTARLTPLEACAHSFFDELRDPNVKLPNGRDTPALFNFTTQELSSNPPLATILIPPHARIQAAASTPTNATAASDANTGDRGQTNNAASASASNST
# test-name: Assay for GSK-3β inhibiting activity (32P-ATP, phospho-CREB peptide substrate, filter paper, CPM)
# Type: biochemical
# particulars: GSK-3β inhibiting activity; 100 nM GSK-3β protein, 100 μM phospho-CREB peptide, 100 μM ATP, 30° C. for 1 hour; read-out: IC50
value-type: IC50 (nM)
A number alone suffices; assume nM.

CS(=O)(=O)NCCc1ccc(NC(=O)c2ccc(O)c3[nH]c(-c4ccccc4)nc23)cc1 [Compound 10]; 40
Cc1ccc(S(=O)(=O)Nc2ccc(CCNC(=O)c3ccc(O)c4[nH]c(-c5ccccc5)nc34)cc2)cc1 [Compound 65]; 60

Continue with the compound presented below.
q: Can you look up the measured IC50 of O=C(NCCc1ccccc1O)c1ccc(O)c2[nH]c(-c3ccc(Cl)cc3)nc12 [Compound 96] for me?
a: 22
